- targetOrSystem: Epidermal growth factor receptor (Mus musculus)
- Sequence (Q01279 whole entry): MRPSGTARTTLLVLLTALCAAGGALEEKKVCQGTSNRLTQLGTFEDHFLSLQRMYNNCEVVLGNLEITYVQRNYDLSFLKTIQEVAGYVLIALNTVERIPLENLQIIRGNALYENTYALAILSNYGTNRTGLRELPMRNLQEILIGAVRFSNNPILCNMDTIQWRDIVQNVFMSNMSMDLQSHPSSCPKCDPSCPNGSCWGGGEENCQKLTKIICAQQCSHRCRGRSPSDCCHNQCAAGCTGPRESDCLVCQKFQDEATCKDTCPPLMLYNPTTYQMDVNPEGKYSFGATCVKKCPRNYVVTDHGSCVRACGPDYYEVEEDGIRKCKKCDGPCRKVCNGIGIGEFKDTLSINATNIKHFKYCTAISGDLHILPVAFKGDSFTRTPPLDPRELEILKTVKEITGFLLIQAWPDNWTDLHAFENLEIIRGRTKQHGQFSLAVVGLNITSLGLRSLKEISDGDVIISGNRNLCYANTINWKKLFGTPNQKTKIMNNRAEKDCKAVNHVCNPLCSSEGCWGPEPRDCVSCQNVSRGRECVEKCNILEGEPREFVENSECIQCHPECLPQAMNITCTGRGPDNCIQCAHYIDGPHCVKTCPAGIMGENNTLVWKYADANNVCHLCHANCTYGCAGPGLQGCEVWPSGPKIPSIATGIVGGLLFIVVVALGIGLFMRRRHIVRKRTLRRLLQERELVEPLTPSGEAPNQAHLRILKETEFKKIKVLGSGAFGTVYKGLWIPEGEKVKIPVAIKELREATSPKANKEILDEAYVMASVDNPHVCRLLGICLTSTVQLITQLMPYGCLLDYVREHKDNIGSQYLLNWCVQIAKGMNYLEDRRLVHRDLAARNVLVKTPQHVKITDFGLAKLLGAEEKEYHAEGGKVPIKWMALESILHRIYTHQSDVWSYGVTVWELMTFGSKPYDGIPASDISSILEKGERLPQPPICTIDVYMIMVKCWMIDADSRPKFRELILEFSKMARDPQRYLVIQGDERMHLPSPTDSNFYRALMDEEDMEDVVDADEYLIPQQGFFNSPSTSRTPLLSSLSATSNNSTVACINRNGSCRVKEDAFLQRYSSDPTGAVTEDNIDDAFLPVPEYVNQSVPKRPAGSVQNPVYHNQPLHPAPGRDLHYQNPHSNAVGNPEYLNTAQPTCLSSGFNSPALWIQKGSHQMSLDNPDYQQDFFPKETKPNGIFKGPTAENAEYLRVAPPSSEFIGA
- methodDescription: Inhibition of recombinant mouse EGFR by ELISA
Listing of recorded IC50 by entry.
testReadout: IC50 (µM)

> print(dat)
                      structuresmilesstring                            targetorsystem  outputunit  qualifyingsign  recordedvalue
1  Cc1ccc(-c2cc(C(=O)Nc3ccc(S(N)(=O)=O)cc3)nn2-c2ccccc2)cc1  Epidermal growth factor receptor (Mus musculus)          µM               >           1000
2  COc1cc(C=O)ccc1OC(=O)c1cc(-c2ccc(C)cc2)n(-c2ccc(S(N)(=O)=O)cc2)n1  Epidermal growth factor receptor (Mus musculus)          µM               =             50
3  NS(=O)(=O)c1ccc(NC(=O)c2cc(-c3ccc(Cl)cc3)n(-c3ccccc3)n2)cc1  Epidermal growth factor receptor (Mus musculus)          µM               =            2.7
4  CS(=O)(=O)c1ccc(NC(=O)c2cc(-c3ccc(Cl)cc3)n(-c3ccccc3)n2)cc1  Epidermal growth factor receptor (Mus musculus)          µM               =            1.7
5  Cc1ccc(-c2cc(C(=O)Nc3ccc(S(C)(=O)=O)cc3)nn2-c2ccccc2)cc1  Epidermal growth factor receptor (Mus musculus)          µM               =            110
6  COc1ccc(-c2cc(C(=O)Oc3ccc(C=O)cc3OC)nn2-c2ccc(S(N)(=O)=O)cc2)cc1  Epidermal growth factor receptor (Mus musculus)          µM               >           1000
7  CNC(=O)c1cc(Oc2ccc(NC(=O)Nc3ccc(Cl)c(C(F)(F)F)c3)cc2)ccn1  Epidermal growth factor receptor (Mus musculus)          µM               =            3.5

This collection of values is drawn from ChEMBL document CHEMBL5579808.
